assayOverview: chemical genetic growth profiling, strain panel (AID 1159580)
protocolConditions: S. cerevisiae deletion strains, growth OD, locus YLR330W, strain CHS5, stronger effect = lower value
About 2,000 (36%) of roughly 5,500 compounds were called active. Inconclusive results (about 18%) are left out. This is one part of the list.

{"columns": ["compound", "normalized growth"],
 "data": [
  ["CCC(=O)OCC(=O)C1(OC(=O)CC)C(C)CC2C3CCC4=CC(=O)C=CC4(C)C3(Cl)C(O)CC21C (centres undefined)", 1.02],
  ["COC(=O)[C@H]1[C@H]2C[C@H]3c4[nH]c5cc(OC)ccc5c4CCN3C[C@H]2C[C@@H](OC(=O)c2cc(OC)c(OC)c(OC)c2)[C@@H]1OC", 0.992],
  ["CCC(=O)OCC(=O)[C@@]1(OC(=O)CC)[C@@H](C)CC2C3CCC4=CC(=O)C=C[C@]4(C)C3(F)[C@@H](O)C[C@@]21C (some centres undefined)", 0.898],
  ["CC(=O)[C@@]1(O)CCC2C3C=C(Cl)C4=CC(=O)[C@@H]5CC5[C@]4(C)C3CC[C@@]21C (some centres undefined)", 1.01]
]}

###

assayOverview: chemical genetic growth profiling, strain panel (AID 1159580)
protocolConditions: S. cerevisiae deletion strains, growth OD, locus YGL167C, strain pmr1, stronger effect = lower value
Hit rate of the full screen: of about 5,500 compounds, about 2,000 (36%) were called active. Roughly 18% stayed inconclusive and do not appear here. This is one part of the list.
readoutKind: normalized growth

{"columns": ["compound", "readoutKind", "quantitativeResult"],
 "data": [
  ["C[C@@H](CO)NC(=O)C1C=C2c3cccc4[nH]cc(c34)C[C@H]2N(C)C1 (some centres undefined)", "normalized growth", 1.03],
  ["N#Cc1c(Cl)cccc1Cl", "normalized growth", 0.978],
  ["COC(=O)N/N=C\\c1c[n+]([O-])c2ccccc2[n+]1[O-]", "normalized growth", 0.978],
  ["NCCCC(O)(P(=O)(O)O)P(=O)(O)O", "normalized growth", 0.98],
  ["C/C=C(\\C)C(=O)O[C@@H]1c2c(ccc3ccc(=O)oc23)OC(C)(C)[C@@H]1OC(C)=O", "normalized growth", 0.984],
  ["C/C=C/CC(C)C(O)C1C(=O)NC(CC)C(=O)N(C)CC(=O)N(C)C(CC(C)C)C(=O)NC(C(C)C)C(=O)N(C)C(CC(C)C)C(=O)NC(C)C(=O)NC(C)C(=O)N(C)C(CC(C)C)C(=O)N(C)C(CC(C)C)C(=O)N(C)C(C(C)C)C(=O)N1C (centres undefined)", "normalized growth", 1.03],
  ["COc1cccc2c1CCC1=CC(=O)CC[C@@]12C", "normalized growth", 1],
  ["CC1(C)Oc2ccc3ccc(=O)oc3c2CC1O (centres undefined)", "normalized growth", 0.961],
  ["Oc1ccc2c3c1OC1[C@@H](O)CC[C@@]4(O)[C@@H](C2)N(CC2CCC2)CC[C@]314 (some centres undefined)", "normalized growth", 0.99]
]}

###

assayOverview: chemical genetic growth profiling, strain panel (AID 1159580)
protocolConditions: S. cerevisiae deletion strains, growth OD, locus YNL128W, strain TEP1, stronger effect = lower value
Out of some 5,500 compounds screened, about 2,000 (36%) were called active. Inconclusive results (about 18%) are left out. This is one part of the list.

{"columns": ["compound", "normalized growth"],
 "data": [
  ["O=C1c2ccccc2C(=O)N1CN1CCC(O)(c2ccc(Cl)cc2)CC1", 0.987],
  ["CO[C@H]1[C@H](O)[C@@H](O[C@H]2CC[C@]3(C=O)C4CC[C@]5(C)[C@@H](C6=CC(=O)OC6)CC[C@]5(O)C4CC[C@@H]3C2)O[C@@H](C)[C@@H]1O (stereo partly drawn)", 0.969],
  ["CC[C@H]1CN2CCC1C[C@@H]2[C@@H](O)c1ccnc2ccc(OC)cc12 (stereo partly drawn)", 1.01],
  ["CCC1(O)C(=O)OCc2c1cc1n(c2=O)Cc2cc3ccccc3nc2-1 (stereo not drawn)", 0.906],
  ["NC(=S)CS(=O)(=O)c1ccc(C(F)(F)F)cc1", 1.03],
  ["O=C(CCCN1CCC2(CC1)C(=O)NCN2c1ccccc1)c1ccc(F)cc1", 0.989],
  ["C[C@H]1O[C@@H](O[C@H]2[C@@H](O)C[C@H](O[C@H]3[C@@H](O)C[C@H](O[C@H]4CC[C@]5(C)C6C[C@@H](O)[C@]7(C)[C@@H](C8=CC(=O)OC8)CC[C@]7(O)C6CC[C@@H]5C4)O[C@@H]3C)O[C@@H]2C)C[C@H](O)[C@@H]1O (stereo partly drawn)", 0.977],
  ["Cc1ccc(S(=O)(=O)N2CCC(N)=N2)cc1", 1.01]
]}

###

assayOverview: chemical genetic growth profiling, strain panel (AID 1159580)
protocolConditions: S. cerevisiae deletion strains, growth OD, locus YJR066W, strain TOR1 (second series), stronger effect = lower value
The campaign covered roughly 5,500 compounds. About 2,000 (36%) were called active. Roughly 18% stayed inconclusive and do not appear here. The other results are listed elsewhere or left out.
normalized growth: recorded values

{"columns": ["compound", "normalized growth"],
 "data": [
  ["COc1ccccc1N1CCN(C(=O)C(C)c2ccc(CC(C)C)cc2)CC1 (stereo not drawn)", "0.946 (inactive)"],
  ["CCOC(=O)NC(=S)Nc1ccc(C(C)(C)C)cc1NC(=S)NC(=O)OCC", "0.778 (inactive)"],
  ["N#Cc1nccnc1N1CCN(C(=O)Nc2cc(Cl)cc(Cl)c2)CC1", "0.934 (inactive)"]
]}

###

assayOverview: chemical genetic growth profiling, strain panel (AID 1159580)
protocolConditions: S. cerevisiae deletion strains, growth OD, locus YCL061C, strain MRC1, stronger effect = lower value
The campaign covered roughly 5,500 compounds. About 2,000 (36%) were called active. Roughly 18% stayed inconclusive and do not appear here. The list shows a part of the results.
Quick rule for you: normalized growth under 1 gets Criterion met, anything else gets Criterion not met.

{"columns": ["compound", "classAssignment"],
 "data": [
  ["NC[C@@H]1O[C@H](O[C@@H]2[C@@H](CO)OC(O[C@@H]3[C@@H](O)[C@H](N)C[C@H](N)[C@H]3O[C@H]3O[C@H](CO)[C@@H](O)[C@H](O)[C@H]3N)[C@@H]2O)[C@H](N)[C@@H](O)[C@@H]1O (stereo partly drawn)", "Criterion met"],
  ["COc1ccc([N+](=O)[O-])c(OC)c1C(N)=O", "Criterion not met"],
  ["COc1ccc(OC)c(CNC(=O)Cc2cccs2)c1", "Criterion not met"],
  ["COc1ccccc1N1CCN(C(=O)Nc2cc(Cl)cc(Cl)c2)CC1", "Criterion met"],
  ["CC(=O)OCC(=O)[C@@]1(O)CCC2C3C[C@H](C)C4=CC(=O)C=CC4(C)C3[C@@H](O)CC21C (stereo partly drawn)", "Criterion not met"],
  ["Cc1cc(N)c2ccccc2[n+]1CCCCCCCCCC[n+]1c(C)cc(N)c2ccccc21", "Criterion met"]
]}

###

assayOverview: chemical genetic growth profiling, strain panel (AID 1159580)
protocolConditions: S. cerevisiae deletion strains, growth OD, locus YBR279W, strain paf1, stronger effect = lower value
Screen size: about 5,500 compounds; about 2,000 (36%) were called active. Not shown: some 18% with an inconclusive outcome. Some of the results follow.
normalized growth: recorded values

{"columns": ["compound", "normalized growth"],
 "data": [
  ["NCC(O)CC(=O)O (centres undefined)", 0.991],
  ["CC(C)(C)NCC(O)COc1cccc2c1C[C@H](O)[C@H](O)C2 (some centres undefined)", 1],
  ["C[C@H]1[C@H](C)CC[C@]2(C(=O)O)CC[C@]3(C)C(=CCC4[C@@]5(C)C[C@@H](O)[C@H](O)[C@@](C)(CO)C5CC[C@]43C)[C@H]12 (some centres undefined)", 1.01],
  ["C[C@H]1[C@H](C)CC[C@]2(C(=O)O)CC[C@]3(C)C(=CCC4[C@@]5(C)C[C@@H](O)[C@H](O)[C@@](C)(CO)C5[C@H](O)C[C@]43C)[C@H]12 (some centres undefined)", 0.948]
]}

###

assayOverview: chemical genetic growth profiling, strain panel (AID 1159580)
protocolConditions: S. cerevisiae deletion strains, growth OD, locus YFR019W, strain FAB1, stronger effect = lower value
Out of some 5,500 compounds screened, about 2,000 (36%) were called active. Inconclusive results (about 18%) are left out. The list shows a part of the results.
Quick rule for you: normalized growth under 0.9 gets yes, anything else gets no.

{"columns": ["smilesRecord", "classAssignment"],
 "data": [
  ["O=c1[nH][nH]c(=O)n1CCCc1cc2cccc3ccc4cccc1c4c32", "no"],
  ["O=c1cc(CSc2ccc(Cl)cc2)c2ccc(O)cc2o1", "yes"],
  ["COc1ccc(N=C2SCC(c3ccc(C)cc3)=NN2CCO)cc1", "no"],
  ["O=C(O/N=C1/CCCc2[nH]c3ccccc3c21)c1ccc(Cl)cc1Cl", "no"]
]}
